- test.protocol: Induction of apoptosis in mouse RAW264.7 cells assessed as viable cells at 3.0 uM by Annexin V-FITC/PI staining based flow cytometric analysis (reference value: 96.4%)
- Type: toxicity, cell-based
- condition.parameters: read-out: Activity
measured.attribute: viability at 3 µM (%)

substance.smiles | measured.attribute | endpoint.value
CN1CCN(c2ccc(/C=C3\CCc4ccc(Br)cc4C3=O)nc2)CC1 | viability at 3 µM | 92.8

----------
- Test system: RAW264.7
- test.protocol: Anti-inflammatory activity in mouse RAW264.7 cells assessed as inhibition of LPS-induced TNF-alpha production at 2.5 uM pretreated with compound for 2 hrs followed by LPS addition and measured after 22 hrs by ELISA relative to control
- Assay type: functional
- condition.parameters: time 24 hrs
Some compounds, each annotated with its measured inhibition at 2.5 µM.

substance.smiles | tested.on | inhibition at 2.5 µM (%)
COc1ccc2c(c1)C(=O)/C(=C/c1ccc(OC)c(C(F)(F)F)c1)CC2 | RAW264.7 | 51
COc1ccc2c(c1)C(=O)/C(=C/c1ccc(N3CCN(C)CC3)nc1)CC2 | RAW264.7 | 34.7
O=C1/C(=C/c2ccc(N3CCOCC3)nc2)CCc2cc(Br)ccc21 | RAW264.7 | 31.4
COc1ccc2c(c1)CC/C(=C\c1ccc(N3CCN(C)CC3)nc1)C2=O | RAW264.7 | 39.6
O=C1/C(=C/c2ccc(N3CCOCC3)nc2)CCc2ccc(O)cc21 | RAW264.7 | 30.8
CN1CCN(c2ccc(/C=C3\CCc4ccc(Br)cc4C3=O)cc2)CC1 | RAW264.7 | 49.8
CN1CCN(c2ccc(/C=C3\CCc4cc(Br)ccc4C3=O)nc2)CC1 | RAW264.7 | 40.6
O=C1/C(=C/c2ccc(-n3ccnc3)cc2)CCc2cc(Br)ccc21 | RAW264.7 | 32.4
O=C1/C(=C/c2ccc(N3CCOCC3)nc2)CCc2ccc(Br)cc21 | RAW264.7 | 23.8
CN1CCN(c2ccc(/C=C3\CCc4ccc(O)cc4C3=O)cc2)CC1 | RAW264.7 | 41.1

----------
- Test system: RAW264.7
- test.protocol: Anti-inflammatory activity in mouse RAW264.7 cells assessed as inhibition of LPS-induced TNF-alpha production at 2.5 uM pretreated with compound for 2 hrs followed by LPS addition and measured after 22 hrs by ELISA relative to control
- Format: functional
- condition.parameters: time 24 hrs
Some compounds, each annotated with its measured inhibition at 2.5 µM.
measured.attribute: inhibition at 2.5 µM (%)

substance.smiles | measured.attribute | readout.unit | endpoint.value
O=C1/C(=C/c2ccc(N3CCOCC3)cc2)CCc2ccc(F)cc21 | inhibition at 2.5 µM | % | 29.5
CN1CCN(c2ccc(/C=C3\CCc4ccc(O)cc4C3=O)cn2)CC1 | inhibition at 2.5 µM | % | 55.9
O=C1/C(=C/c2ccc(N3CCOCC3)nc2)CCc2ccc(F)cc21 | inhibition at 2.5 µM | % | 23.8
CN1CCN(c2ccc(/C=C3\CCc4cc(Br)ccc4C3=O)cn2)CC1 | inhibition at 2.5 µM | % | 39
COc1ccc2c(c1)C(=O)/C(=C/c1ccc(N3CCOCC3)nc1)CC2 | inhibition at 2.5 µM | % | 27.6
COc1ccc2c(c1)CC/C(=C\c1ccc(-n3ccnc3)cc1)C2=O | inhibition at 2.5 µM | % | 31.7
O=C1/C(=C/c2ccc(N3CCOCC3)cc2)CCc2cc(F)ccc21 | inhibition at 2.5 µM | % | 32.1
CN1CCN(c2ccc(/C=C3\CCc4cc(Br)ccc4C3=O)cc2)CC1 | inhibition at 2.5 µM | % | 42.4
CN1CCN(c2ccc(/C=C3\CCc4ccc(Br)cc4C3=O)cn2)CC1 | inhibition at 2.5 µM | % | 51
O=C1/C(=C/c2ccc(-n3ccnc3)cc2)CCc2cc(F)ccc21 | inhibition at 2.5 µM | % | 39.4
O=C1/C(=C/c2ccc(-n3ccnc3)cc2)CCc2ccc(O)cc21 | inhibition at 2.5 µM | % | 25.3

----------
- test.protocol: Cytotoxicity against mouse RAW264.7 cells assessed as survival rate at 2.5 uM incubated overnight by CCK-8 assay relative to control
- Format: toxicity, cell-based
- condition.parameters: read-out: Survival
Some compounds, each annotated with its measured viability at 2.5 µM.

substance.smiles | viability at 2.5 µM / %
O=C1/C(=C/c2ccc(N3CCOCC3)nc2)CCc2cc(Br)ccc21 | 86.2
O=C1/C(=C/c2ccc(N3CCOCC3)nc2)CCc2ccc(O)cc21 | 104
O=C1/C(=C/c2ccc(-n3ccnc3)cc2)CCc2cc(Br)ccc21 | 82.6
CN1CCN(c2ccc(/C=C3\CCc4cc(Br)ccc4C3=O)cc2)CC1 | 87
COc1ccc2c(c1)CC/C(=C\c1ccc(N3CCOCC3)cc1)C2=O | 89.3
CN1CCN(c2ccc(/C=C3\CCc4cc(Br)ccc4C3=O)cn2)CC1 | 87.8
COc1ccc2c(c1)C(=O)/C(=C/c1ccc(N3CCOCC3)nc1)CC2 | 82.4
COc1ccc2c(c1)C(=O)/C(=C/c1ccc(OC)c(C(F)(F)F)c1)CC2 | 114

----------
- Test system: RAW264.7
- test.protocol: Anti-inflammatory activity in mouse RAW264.7 cells assessed as inhibition of LPS-induced TNF-alpha production at 2.5 uM pretreated with compound for 2 hrs followed by LPS addition and measured after 22 hrs by ELISA relative to control
- Format: functional
- condition.parameters: time 24 hrs
measured.attribute: inhibition at 2.5 µM (%)

substance.smiles | measured.attribute | endpoint.value
O=C1/C(=C/c2ccc(-n3ccnc3)cc2)CCc2ccc(Br)cc21 | inhibition at 2.5 µM | 39.8
CN1CCN(c2ccc(/C=C3\CCc4ccc(F)cc4C3=O)cn2)CC1 | inhibition at 2.5 µM | 35.3
COc1ccc2c(c1)CC/C(=C\c1ccc(N3CCOCC3)nc1)C2=O | inhibition at 2.5 µM | 45
COc1ccc2c(c1)CC/C(=C\c1ccc(N3CCN(C)CC3)cc1)C2=O | inhibition at 2.5 µM | 34.6
O=C1/C(=C/c2ccc(N3CCOCC3)cc2)CCc2cc(Br)ccc21 | inhibition at 2.5 µM | 29.6
COc1ccc2c(c1)CC/C(=C\c1ccc(N3CCOCC3)cc1)C2=O | inhibition at 2.5 µM | 31.6

----------
- test.protocol: Cytotoxicity against mouse RAW264.7 cells assessed as survival rate at 2.5 uM incubated overnight by CCK-8 assay relative to control
- Type: toxicity, cell-based
- condition.parameters: read-out: Survival
Some compounds, each annotated with its measured viability at 2.5 µM.

substance.smiles | viability at 2.5 µM
O=C1/C(=C/c2ccc(N3CCOCC3)nc2)CCc2ccc(F)cc21 | 99.8%
COc1ccc2c(c1)C(=O)/C(=C/c1ccc(N3CCOCC3)cc1)CC2 | 82.2%
CN1CCN(c2ccc(/C=C3\CCc4ccc(O)cc4C3=O)nc2)CC1 | 98.6%
CN1CCN(c2ccc(/C=C3\CCc4cc(F)ccc4C3=O)cc2)CC1 | 90.5%
O=C1/C(=C/c2ccc(-n3ccnc3)cc2)CCc2ccc(O)cc21 | 87.1%
O=C1/C(=C/c2ccc(N3CCOCC3)cc2)CCc2ccc(Br)cc21 | 82.7%
COc1ccc2c(c1)C(=O)/C(=C/c1ccc(N3CCN(C)CC3)cn1)CC2 | 89%
O=C1/C(=C/c2ccc(-n3ccnc3)cc2)CCc2ccc(F)cc21 | 98%
COc1ccc2c(c1)CC/C(=C\c1ccc(-n3ccnc3)cc1)C2=O | 92.8%
CN1CCN(c2ccc(/C=C3\CCc4ccc(O)cc4C3=O)cc2)CC1 | 103%
COc1ccc2c(c1)CC/C(=C\c1ccc(N3CCN(C)CC3)nc1)C2=O | 88.9%

----------
- Tested on: RAW264.7
- test.protocol: Anti-inflammatory activity in mouse RAW264.7 cells assessed as inhibition of LPS-induced TNF-alpha production at 2.5 uM pretreated with compound for 2 hrs followed by LPS addition and measured after 22 hrs by ELISA relative to control
- Type: functional
- condition.parameters: time 24 hrs
Some compounds, each annotated with its measured inhibition at 2.5 µM.

substance.smiles | readout.unit | inhibition at 2.5 µM
COc1ccc2c(c1)C(=O)/C(=C/c1ccc(N3CCN(C)CC3)cn1)CC2 | % | 35.3
COc1ccc2c(c1)C(=O)/C(=C/c1ccc(N3CCOCC3)cc1)CC2 | % | 30.5
CN1CCN(c2ccc(/C=C3\CCc4cc(F)ccc4C3=O)cc2)CC1 | % | 37.1
O=C1/C(=C/c2ccc(N3CCOCC3)nc2)CCc2cc(F)ccc21 | % | 31
CN1CCN(c2ccc(/C=C3\CCc4ccc(Br)cc4C3=O)nc2)CC1 | % | 81.4

----------
- test.protocol: Cytotoxicity against mouse RAW264.7 cells assessed as survival rate at 2.5 uM incubated overnight by CCK-8 assay relative to control
- Type: toxicity, cell-based
- condition.parameters: read-out: Survival
Some molecules, each annotated with its measured viability at 2.5 µM.
measured.attribute: viability at 2.5 µM (%)

substance.smiles | measured.attribute | readout.unit | endpoint.value
CN1CCN(c2ccc(/C=C3\CCc4ccc(F)cc4C3=O)cn2)CC1 | viability at 2.5 µM | % | 88.7
COc1ccc2c(c1)CC/C(=C\c1ccc(N3CCN(C)CC3)cc1)C2=O | viability at 2.5 µM | % | 91.3
COc1ccc2c(c1)C(=O)/C(=C/c1ccc(N3CCN(C)CC3)cc1)CC2 | viability at 2.5 µM | % | 98
O=C1/C(=C/c2ccc(N3CCOCC3)cc2)CCc2ccc(F)cc21 | viability at 2.5 µM | % | 82.7
O=C1/C(=C/c2ccc(-n3ccnc3)cc2)CCc2cc(F)ccc21 | viability at 2.5 µM | % | 80.7
